ASSAY_TARGET: adenosine A2a receptor (Homo sapiens, UniProt P29274)
Sequence (P29274 whole entry): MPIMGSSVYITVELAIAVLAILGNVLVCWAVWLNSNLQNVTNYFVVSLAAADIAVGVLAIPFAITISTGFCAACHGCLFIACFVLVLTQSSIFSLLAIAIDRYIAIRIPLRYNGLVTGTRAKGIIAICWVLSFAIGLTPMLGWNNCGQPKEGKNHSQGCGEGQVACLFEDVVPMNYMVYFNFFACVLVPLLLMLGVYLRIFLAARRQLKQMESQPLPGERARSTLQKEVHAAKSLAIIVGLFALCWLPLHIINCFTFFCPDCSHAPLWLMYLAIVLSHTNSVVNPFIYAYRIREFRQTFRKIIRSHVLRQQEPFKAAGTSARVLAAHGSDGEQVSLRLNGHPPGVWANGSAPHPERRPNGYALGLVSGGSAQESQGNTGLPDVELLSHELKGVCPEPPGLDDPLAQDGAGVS
ASSAY_OVERVIEW: Indirect determination of adenosine agonism by way of gene expression (luciferase, CHO cells), A2a
PROTOCOL_CONDITIONS: CHO cells stably transfected with A2a receptor cDNA; 50% of maximum luciferase stimulation
Measured EC50 of individual entries

Q: Given the entry N#Cc1cnc(SCc2csc(-c3ccc(Cl)cc3)n2)c(C#N)c1N1CCCCC1 [Example 34] , report its measured EC50.
Result: > 3 µM

Q: Can you handle CN1CCN(c2c(C#N)c(N)nc(SCc3csc(-c4ccc(Cl)cc4)n3)c2C#N)CC1 [Example 4] next?
Result: > 3 µM

Q: Can you handle COc1nc(SCc2csc(-c3ccc(Cl)cc3)n2)c(C#N)c(N2CCCCC2)c1C#N [Example 35] next?
Result: > 3 µM

Q: Can you handle N#Cc1c(N)nc(SCc2csc(Nc3ccc(F)cc3)n2)c(C#N)c1N1CCCCC1 [Example 6] next?
Result: 1.81 µM
